assay: Population pharmacokinetic analysis in patients; type: in vivo, human; details: human, plasma, iv, 1-hour intravenous infusion, 3-compartment PK model; read-out: γ-half-life (converted)
reported-endpoint: half-life (h)
Supply the numeric figure in h, leaving out any unit text.

Prompt: half-life lookup needed for CO[C@H]1C(=O)[C@]2(C)[C@@H](OC)C[C@H]3OC[C@@]3(OC(C)=O)[C@H]2[C@H](OC(=O)c2ccccc2)[C@]2(O)C[C@H](OC(=O)[C@H](O)[C@@H](NC(=O)OC(C)(C)C)c3ccccc3)C(C)=C1C2(C)C [cabazitaxel] , thanks.
Completion: 95

Values from patent US12453712B2
